- Test system: S. aureus Newman
- EXPERIMENT NOTES: Bliss interaction score (quartile over a dose matrix) (fitness difference); higher = more antagonism (negative = synergy);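 also: first quartile when negative (synergy) and third quartile when positive (antagonism)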
MEASURED PROPERTY: Bliss interaction score

• CN(C)C(=O)C(CCN1CCC(O)(c2ccc(Cl)cc2)CC1)(c1ccccc1)c1ccccc1 [Loperamide] + CO[C@H]1/C=C/O[C@@]2(C)Oc3c(C)c(O)c4c(O)c(c(/C=N/N5CCN(C)CC5)c(O)c4c3C2=O)NC(=O)/C(C)=C\C=C\[C@H](C)[C@H](O)[C@@H](C)[C@@H](O)[C@@H](C)[C@H](OC(C)=O)[C@@H]1C [Rifampicin] = 0.012
• CO/N=C(\C(=O)N[C@@H]1C(=O)N2C(C(=O)[O-])=C(C[N+]3(C)CCCC3)CS[C@H]12)c1csc(N)n1 [Cefepime] + C[C@H]1COc2c(N3CCN(C)CC3)c(F)cc3c(=O)c(C(=O)O)cn1c23 [Levofloxacin] = 0.0639

---

The following molecules are listed with their measured Bliss interaction score values.
- Tested on: S. pneumoniae D39V
- EXPERIMENT NOTES: Bliss interaction score (quartile over a dose matrix) (fitness difference); higher = more antagonism (negative = synergy)
MEASURED PROPERTY: Bliss interaction score

* CC1(C)S[C@@H]2[C@H](NC(=O)[C@H](N)c3ccc(O)cc3)C(=O)N2[C@H]1C(=O)O [Amoxicillin] + CN[C@@H]1[C@H](O)[C@H](NC)[C@H]2O[C@@]3(O)C(=O)C[C@@H](C)O[C@H]3O[C@@H]2[C@H]1O [Spectinomycin] | 0.0712
* C[C@H]1COc2c(N3CCN(C)CC3)c(F)cc3c(=O)c(C(=O)O)cn1c23 [Levofloxacin] + Cc1onc(-c2ccccc2)c1C(=O)N[C@@H]1C(=O)N2[C@@H]1SC(C)(C)[C@@H]2C(=O)O [Oxacillin] | 0.11
* CC1(C)S[C@@H]2[C@H](NC(=O)[C@H](N)c3ccc(O)cc3)C(=O)N2[C@H]1C(=O)O [Amoxicillin] + CC1(C)S[C@@H]2[C@H](NC(=O)Cc3ccccc3)C(=O)N2[C@H]1C(=O)O [PenicillinG] | -0.0781
* CC1(C)S[C@@H]2[C@H](NC(=O)[C@H](N)c3ccc(O)cc3)C(=O)N2[C@H]1C(=O)O [Amoxicillin] + CO/N=C(\C(=O)N[C@@H]1C(=O)N2C(C(=O)O)=C(COC(C)=O)CS[C@H]12)c1csc(N)n1 [Cefotaxime] | -0.0441
* CO/N=C(\C(=O)N[C@@H]1C(=O)N2C(C(=O)[O-])=C(C[N+]3(C)CCCC3)CS[C@H]12)c1csc(N)n1 [Cefepime] + CO[C@@]12[C@H](COC(N)=O)C3=C(C(=O)C(C)=C(N)C3=O)N1C[C@@H]1N[C@@H]12 [MitomycinC] | 0.125
* CC1(C)S[C@@H]2[C@H](NC(=O)[C@H](N)c3ccc(O)cc3)C(=O)N2[C@H]1C(=O)O [Amoxicillin] + CC[C@H]1OC(=O)[C@H](C)[C@@H](O[C@H]2C[C@@](C)(OC)[C@@H](O)[C@H](C)O2)[C@H](C)[C@@H](O[C@@H]2O[C@H](C)C[C@H](N(C)C)[C@H]2O)[C@](C)(O)C[C@@H](C)C(=O)[C@H](C)[C@@H](O)[C@]1(C)O [Erythromycin] | 0.0883
* CCCCCCCCCC(=O)N[C@@H](Cc1c[nH]c2ccccc12)C(=O)N[C@H](CC(N)=O)C(=O)N[C@@H](CC(=O)O)C(=O)N[C@@H]1C(=O)NCC(=O)N[C@@H](CCCN)C(=O)N[C@@H](CC(=O)O)C(=O)N[C@H](C)C(=O)N[C@@H](CC(=O)O)C(=O)NCC(=O)N[C@H](CO)C(=O)N[C@@H]([C@H](C)CC(=O)O)C(=O)N[C@@H](CC(=O)c2ccccc2N)C(=O)O[C@@H]1C [Daptomycin] + CO[C@@H]1[C@@H](OC(N)=O)[C@@H](O)[C@H](Oc2ccc3c(O)c(NC(=O)c4ccc(O)c(CC=C(C)C)c4)c(=O)oc3c2C)OC1(C)C [Novobiocin] | 0.0661
* CO/N=C(\C(=O)N[C@@H]1C(=O)N2C(C(=O)[O-])=C(C[N+]3(C)CCCC3)CS[C@H]12)c1csc(N)n1 [Cefepime] + Oc1cc(Cl)ccc1Oc1ccc(Cl)cc1Cl [Triclosan] | -0.0485
* C[C@H]1COc2c(N3CCN(C)CC3)c(F)cc3c(=O)c(C(=O)O)cn1c23 [Levofloxacin] + CCN(CC)CCOC(=O)c1ccc(N)cc1 [Procaine] | 0.053
* CO/N=C(\C(=O)N[C@@H]1C(=O)N2C(C(=O)[O-])=C(C[N+]3(C)CCCC3)CS[C@H]12)c1csc(N)n1 [Cefepime] + CCN(CC)CCOC(=O)c1ccc(N)cc1 [Procaine] | 0.0421
* CC1(C)S[C@@H]2[C@H](NC(=O)[C@H](N)c3ccc(O)cc3)C(=O)N2[C@H]1C(=O)O [Amoxicillin] + C1=CC(=CC(=C1)Cl)NN=C(C#N)C#N [CCCP] | -0.0978
* CO/N=C(\C(=O)N[C@@H]1C(=O)N2C(C(=O)[O-])=C(C[N+]3(C)CCCC3)CS[C@H]12)c1csc(N)n1 [Cefepime] + N[C@@H]1CONC1=O [CycloserineD] | 0.0926
* CN(C)C(=O)C(CCN1CCC(O)(c2ccc(Cl)cc2)CC1)(c1ccccc1)c1ccccc1 [Loperamide] + Oc1cc(Cl)ccc1Oc1ccc(Cl)cc1Cl [Triclosan] | -0.179
* CC1(C)S[C@@H]2[C@H](NC(=O)[C@H](N)c3ccc(O)cc3)C(=O)N2[C@H]1C(=O)O [Amoxicillin] + CC[C@H]1OC(=O)[C@H](C)[C@@H](O[C@H]2C[C@@](C)(OC)[C@@H](O)[C@H](C)O2)[C@H](C)[C@@H](O[C@@H]2O[C@H](C)C[C@H](N(C)C)[C@H]2O)[C@](C)(OC)C[C@@H](C)C(=O)[C@H](C)[C@@H](O)[C@]1(C)O [Clarithromycin] | 0.177
* CC1(C)S[C@@H]2[C@H](NC(=O)[C@H](N)c3ccc(O)cc3)C(=O)N2[C@H]1C(=O)O [Amoxicillin] + C[C@@H]1O[C@@H]1P(=O)(O)O [Fosfomycin] | -0.113
* CC1(C)S[C@@H]2[C@H](NC(=O)[C@H](N)c3ccc(O)cc3)C(=O)N2[C@H]1C(=O)O [Amoxicillin] + O=C(N[C@H](CO)[C@H](O)c1ccc([N+](=O)[O-])cc1)C(Cl)Cl [Chloramphenicol] | 0.165
